# gMFI on SKW3 WT, anti-mFc 647 per record follows
target: T1, human CD4 on cells (SKW3 cells; human PBMCs) (human, UniProt P01730 26-458); assay: FACS confirmation, supernatant on SKW3 cells; background gMFI 3300
T1 construct: whole, on cells; SKW3 CD4 knockout cells served as the negative cell line in the primary screen; also called hCD4; huCD4
Expressed in gMFI, but write only the number.

75110_08F20A (antibody, V domains shown, Tested as non-clonal AlivaMab Mouse Kappa hybridoma supernatant (detected with anti-mouse Fc gamma and anti-human kappa)) VH: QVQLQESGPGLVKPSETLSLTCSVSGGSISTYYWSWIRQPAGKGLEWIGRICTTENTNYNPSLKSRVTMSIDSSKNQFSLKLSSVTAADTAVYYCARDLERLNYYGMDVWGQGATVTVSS VL: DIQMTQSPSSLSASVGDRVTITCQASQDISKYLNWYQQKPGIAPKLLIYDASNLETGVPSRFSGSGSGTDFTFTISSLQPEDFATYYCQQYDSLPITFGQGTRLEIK : 31500
75110_08G08A (antibody, V domains shown, Tested as non-clonal AlivaMab Mouse Kappa hybridoma supernatant (detected with anti-mouse Fc gamma and anti-human kappa)) VH: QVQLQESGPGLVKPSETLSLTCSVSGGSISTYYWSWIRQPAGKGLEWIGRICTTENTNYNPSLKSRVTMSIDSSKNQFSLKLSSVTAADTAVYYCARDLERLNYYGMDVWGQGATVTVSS VL: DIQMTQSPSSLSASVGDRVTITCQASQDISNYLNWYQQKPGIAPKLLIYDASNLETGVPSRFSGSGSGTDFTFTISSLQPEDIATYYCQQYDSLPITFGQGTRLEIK : 19400

Below: the item to evaluate.
Query string: Consider the binder shown here: 75110_14I16A (antibody, V domains shown, Tested as non-clonal AlivaMab Mouse Kappa hybridoma supernatant (detected with anti-mouse Fc gamma and anti-human kappa); also called 75110_14116A) VH: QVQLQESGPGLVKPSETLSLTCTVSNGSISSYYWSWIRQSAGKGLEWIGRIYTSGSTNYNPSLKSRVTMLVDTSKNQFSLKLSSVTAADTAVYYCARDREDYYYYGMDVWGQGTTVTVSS VL: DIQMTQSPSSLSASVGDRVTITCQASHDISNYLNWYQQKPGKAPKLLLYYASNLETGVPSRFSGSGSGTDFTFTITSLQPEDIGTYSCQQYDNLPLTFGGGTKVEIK What is its recorded gMFI on SKW3 WT, anti-mFc 647?
Result string: 6820
